Dear all, I have gathered published IC50 values for Vascular endothelial growth factor receptor 3 (Homo sapiens); the list follows.

Sample records with IC50:
Cc1ccc(F)cc1C(=O)c1c[nH]c2ncc(-c3cccc(N)c3)cc12 :: ≤ 10 µM
CC(C)NC(=O)[C@H]1CC[C@@H](n2/c(=N/C(=O)c3ccc(F)cc3)[nH]c3ccc(CN4CCC(C(C)(C)O)CC4)cc32)CC1 :: > 1 µM
CN(C)C(=O)N1CCN(Cc2ccnc(Nc3cc4ccccc4cn3)c2)CC1 :: < 0.1 µM
O=C(c1cccc(O)c1)c1c[nH]c2ncccc12 :: ≤ 10 µM

Ask | Look up IC50 for this molecule: O=C(c1ccc(O)cc1)c1c[nH]c2ncc(-c3cccs3)cc12
Reply | ≤ 10 µM

Ask | Same question, CC(=O)Nc1cccc(-c2cnc3[nH]cc(C(=O)c4cc(O)ccc4F)c3c2)c1 this time
Reply | ≤ 10 µM

Ask | Now try CS(=O)(=O)Nc1cccc(-c2cnc3[nH]cc(C(=O)c4ccc(Cl)cc4)c3c2)c1 .
Reply | ≤ 10 µM

Ask | Next up: C=CC(=O)N(C)c1cc(Nc2ncc(Cl)c(NCCCNC(=O)c3ccc(F)cc3)n2)ccc1F
Reply | 0.042 µM

---

Collected literature values of IC50 measured for Vascular endothelial growth factor receptor 3 (Homo sapiens, UniProt P35916).

Example entries and their recorded answers appear below.
CC(C)(O)Cc1nnc2cc(Nc3ncc(Cl)c(NC4CCN(c5ccc(C#N)nn5)CC4)n3)ccn12 :: 0.202 µM
COc1ccc(F)c(C(=O)c2c[nH]c3ncc(-c4cccs4)cc23)c1 :: ≤ 10 µM
COc1cc2ncnc(Oc3ccc(NC(=O)NC4CC4)cc3)c2cc1OC :: 0.03 µM
O=C(c1cccc(O)c1)c1c[nH]c2ncc(-c3cccs3)cc12 :: ≤ 10 µM
COc1ccc2cnc(Nc3cc(CN4CCCC4)ccn3)cc2c1 :: < 0.1 µM
O=C(Nc1ccc(Oc2ncnc3[nH]ncc23)cc1)Nc1ccc(Cl)c(C(F)(F)F)c1 :: < 10 µM
O=C(c1cc(O)ccc1F)c1c[nH]c2ncc(-c3cccnc3)cc12 :: ≤ 10 µM
Oc1cc(O)cc(Cc2c[nH]c3ncc(-c4ccsc4)cc23)c1 :: ≤ 10 µM

Ask | Any idea what IC50 was measured for COc1cccc(C(=O)c2c[nH]c3ncc(Br)cc23)c1F ?
Reply | ≤ 10 µM

---

Literature survey of pIC50 (system: Vascular endothelial growth factor receptor 3 (Homo sapiens, UniProt P35916)).
pIC50: −log10 of the molar value.

Clc1ccc2cc(Nc3cc(CN4CCCC4)ccn3)ncc2c1 :: < 7.00
CC(C)(C)c1cc(NC(=O)Nc2ccc(Oc3ncnc4[nH]ncc34)cc2)on1 :: > 5.00
CC(C)(O)c1nc2cc(Nc3ncc(Cl)c(NC4CCN(c5ccc(C#N)nn5)CC4)n3)ccn2n1 :: 7.02
O=S(=O)(c1ccccc1)c1c[nH]c2ncccc12 :: ≥ 5.00
CC(=O)Nc1cccc(-c2cnc3[nH]cc(C(=O)c4cc(C)on4)c3c2)c1 :: ≥ 5.00

We now examine a further molecule.
Ask | Which pIC50 is listed for COc1cccc(C(=O)c2c[nH]c3ncc(-c4ccsc4)cc23)c1 ?
Reply | ≥ 5.00

---

pIC50: −log10 of the molar value.
A compilation of published pIC50 results with Vascular endothelial growth factor receptor 3 (Homo sapiens, UniProt P35916).

Cc1ccc(C(=O)Nc2n[nH]c3c2CCn2cc(C(=O)N4CCC(N5CCCCC5)CC4)cc2-3)c(C)c1 :: 5.40
COc1cc2ncnc(Oc3ccc(NC(=O)N4CCCCC4)cc3)c2cc1OC :: 6.48
Cc1cc(C(=O)c2c[nH]c3ncc(-c4ccc(C(N)=O)cc4)cc23)n(C)n1 :: ≥ 5.00

Attention now turns to another entry.
Ask | Give Vascular endothelial growth factor receptor 3 (Homo sapiens, UniProt P35916) pIC50 for COc1cccc(C(=O)c2c[nH]c3ncc(-c4cccc(N)c4)cc23)c1
Reply | ≥ 5.00
